SYSTEM TESTED: Nucleoprotein (Severe acute respiratory syndrome coronavirus 2)
ASSAY NOTES: Binding affinity to SARS-CoV-2 N-pro assessed as dissociation constant by SPR analysis
TEST READOUT: Kd (µM)
Value expressed in µM; do not type the unit.

Some entries whose results are on file:
chemical_smiles=CCN1Cc2cc(OC)c(OC)cc2-c2cccc(NCc3csc4ccc(Cl)cc34)c21 test_readout=Kd value_observed=97.7
chemical_smiles=CCN1Cc2cc(OC)c(OC)cc2-c2cccc(Nc3ncnc4c3nnn4Cc3ccccc3)c21 test_readout=Kd value_observed=0.35

Summary for this molecule, CCn1c(=O)c2cc(OC)c(OC)cc2c2cccc(/N=C/c3c4ccccc4cc4ccccc34)c21 : Kd is 9.71

Reference source for all entries: ChEMBL document CHEMBL6127073
